Would you kindly list GI50 for each of these compounds?
- System: UO-31
- PROTOCOL TEXT: NCI tumour cell line growth inhibition, 48 h
Activity calls are given as the source filed them. Rule as the data show it: active = GI50 up to about 1.1 µM and inactive = higher.

COMPOUND	SYSTEM TESTED	TEST RESULT
CC1CCC2CC(=O)OC([C@@H]3C(=O)O[C@@H](C4=CCCC4)C4C(C)CCC43)C12 (stereo not given in full)	UO-31	> 100 µM (inactive)
CCOC(=O)C(C)c1nc2cc(F)c(N3CCOCC3)cc2[nH]c1=O (stereo not given)	UO-31	> 100 µM (inactive)
Nc1ncnc2sc(Nc3ccccc3)nc12	UO-31	45.8 µM (inactive)

For each entry beneath this line, provide reported GI50.
1. CC(C)(C)c1cc2nc(c1)C(C(F)(F)F)(C(F)(F)F)OB(Br)OC2(C(F)(F)F)C(F)(F)F
2. O=[N+]([O-])c1ccc2nc(O)n[n+]([O-])c2c1

Result block:
["0.292 µM (active)", "> 100 µM (inactive)"]
